Reference source: patent USRE49687E1

Listing: IC50 of selected molecules
TARGET SYSTEM: menin-MLL interaction (Homo sapiens, UniProt O00255)
Sequence (O00255 1-610): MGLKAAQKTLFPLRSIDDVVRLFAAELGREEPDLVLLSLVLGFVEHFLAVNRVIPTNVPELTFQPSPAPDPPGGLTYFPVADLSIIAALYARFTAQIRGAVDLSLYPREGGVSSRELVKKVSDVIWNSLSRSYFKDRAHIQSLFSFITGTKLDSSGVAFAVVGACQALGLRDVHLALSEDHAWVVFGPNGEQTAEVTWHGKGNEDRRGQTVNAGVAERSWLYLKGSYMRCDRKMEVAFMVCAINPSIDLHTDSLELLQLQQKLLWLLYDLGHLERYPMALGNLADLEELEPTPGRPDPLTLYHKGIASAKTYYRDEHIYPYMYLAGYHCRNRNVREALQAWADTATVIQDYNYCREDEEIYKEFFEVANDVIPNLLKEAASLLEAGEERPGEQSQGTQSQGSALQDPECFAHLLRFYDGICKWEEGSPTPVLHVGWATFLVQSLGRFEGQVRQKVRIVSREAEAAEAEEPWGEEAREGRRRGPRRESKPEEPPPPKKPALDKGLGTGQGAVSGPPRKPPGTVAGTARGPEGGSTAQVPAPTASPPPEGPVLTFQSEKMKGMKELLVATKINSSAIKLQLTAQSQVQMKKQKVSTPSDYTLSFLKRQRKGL
EXPERIMENT NOTES: Fluorescence polarization (FP) competition assay of the menin-MLL interaction
CONDITIONS: inhibition of the menin-MLL interaction; read-out: IC50 values for Table 1 inhibitors of menin

Answered cases to consult:
• C=CC(=O)Nc1ccc(C(O)Cn2c(C#N)cc3c(C)c(CN4CCC(Nc5ncnc6sc(CC(F)(F)F)cc56)CC4)ccc32)cn1 (stereo not drawn) [Compound 112] = < 30 nM
• [2H]C([2H])=C([2H])C(=O)Nc1ccc(CCn2c(C#N)cc3c(C)c(CN4CCC(Nc5ncnc6sc(CC(F)(F)F)cc56)CC4)ccc32)cc1 [Compound 241] = 30 to 100 nM

Now for the molecule whose IC50 we want.
# return recorded IC50 for input C=CC(=O)N1CCC(Cn2c(C#N)cc3c(C)c(CN4CCC(Nc5ncnc6sc(CC(F)(F)F)cc56)CC4)ccc32)C1 (stereo not drawn) [Compound 208] 30 to 100 nM
